Values were extracted from paper PMC8809517.

# studyTarget: T1, GFP-9S library array, motif 4 ND N98D;D124H (synthetic construct, N98D;D124H)
# T1 chain: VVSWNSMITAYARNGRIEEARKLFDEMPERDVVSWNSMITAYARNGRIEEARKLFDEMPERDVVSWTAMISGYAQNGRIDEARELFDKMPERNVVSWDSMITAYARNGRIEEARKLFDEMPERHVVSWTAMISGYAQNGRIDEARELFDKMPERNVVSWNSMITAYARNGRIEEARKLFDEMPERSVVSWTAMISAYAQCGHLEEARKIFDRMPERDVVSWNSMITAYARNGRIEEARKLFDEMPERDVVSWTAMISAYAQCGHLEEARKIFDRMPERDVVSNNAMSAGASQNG
# experimentNotes: high-throughput RNA pulldown from lysate on Ni-NTA beads; HRP: 50 mM Tris pH 8, 150 mM NaCl, 1 mM beta-mercaptoethanol, 50 ug/ml BSA, 3 ug/ml yeast RNA, 0.5% heparin; ITC and FP: Tris pH 8, 200 mM KCl, 5% glycerol; MST: 50 mM Tris pH 8, 200 mM NaCl, 1 mM DTT, BSA, heparin, 0.05% Tween 20
# cond: tags: N-terminal His-eGFP; label: 5' Cy5
Entries annotated with measured Kd
Numeric only. Scale: nM

{"binder": "AUUACACGUGA (ssRNA) [Cy5-rpoA]", "Kd [nM]": 123}

Moving on to the next binder.
Record request: Kd value, item AUUAGACGUGA (ssRNA) [Cy5-rpoA-G]
120
